// reported %Inh for each item listed
Tested on: TRKB
Conditions: concentration: 1 μM,replicates: in singlicate; n = 1;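 also: KINOMEscan kinase panel screen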
A number alone suffices; assume %.

Value of %Inh reported for the compound "CC(=O)c1c(-c2ccncc2)[nH]c(-c2ccncc2)c1C" is 0

%Inh for "NC(=O)Nc1sc(-c2ccc(F)cc2)cc1C(N)=O" is 89

"CCn1c(-c2nonc2N)nc2cncc(CNC3CCNCC3)c21.Cl" has a reported %Inh of 43

Quick note, %Inh for CC(C(=O)NC1CCN(c2ccnc(Nc3ccc(F)cc3)n2)C1)c1ccc(Cl)cc1 (stereo not drawn) landed at 11

Lab note: "CC(=O)Nc1ccc(-c2cc3ncnc(SCC(=O)O)c3s2)cc1" gave %Inh of 0

Memo: "CCCC(=O)Nc1n[nH]c2ncccc12" , reported %Inh: 6

Given item "Cn1ccc2ncnc(Oc3ccc(NC(=O)Nc4cc(C(C)(C)C)on4)c(Cl)c3)c21" , the value recorded as its %Inh is 96.4

// recorded %Inh for CCNCC(Cc1ccccc1)NC(=O)c1cc(Br)c(-c2ccnc3[nH]ccc23)s1.Cl.Cl (stereo not drawn) : 77

Summary for this compound, "Cc1ccc(C(=O)Nc2ccc(Oc3ccc4nc(NC(=O)C5CC5)cn4c3)c(F)c2)c(=O)n1-c1ccccc1" : %Inh is 99.9

Item: "CNC(=O)c1ccccc1Nc1nc(Nc2cccc(CS(C)(=O)=O)c2)ncc1C.O=CO" | %Inh: 91.1

Sample "CN(c1ccc2c(c1)nc(NCc1ccc(F)cc1)n2C)c1ccnc(Nc2ccc(CS(C)(=O)=O)cc2)n1.Cl" ; %Inh observed: 7

// "CCN1CCN(CCCC(=O)Nc2n[nH]c3nc(-c4ccc(O)cc4)c(Br)cc23)CC1" : %Inh value = 2

Just so you know, measured %Inh for COc1cc(Nc2nccc(N3CCC(NC(=O)c4cccc(C#N)c4)C3)n2)cc(OC)c1OC (stereo not drawn) came out at 53

"CN(c1cccc(CNc2nc(Nc3ccc4c(c3)CC(=O)N4)ncc2C(F)(F)F)c1)S(C)(=O)=O" has a reported %Inh of 93.5

Per the record, CS(=O)c1ccc(-c2coc3ccc(-c4n[nH]c(=O)o4)cc23)cc1 (stereo not drawn) has %Inh of 0

"Cn1cc(-c2cccc3c(N)c(C(N)=O)nnc23)cn1" yielded %Inh of 0

The compound listed as "C[C@@H](Oc1cc(-n2cnc3cc(-c4ccncc4)ccc32)sc1C(N)=O)c1ccccc1Cl" has a reported %Inh of 52

The compound "COC(=O)c1cccc(NC(=O)NC2CCN(c3ccnc(NCc4ccc(F)cc4)n3)CC2)c1" showed %Inh equal to 12

---

Test system: TAK1
Construct: gene MAP3K7
Conditions: concentration: 1 μM,replicates: in singlicate; n = 1
Value Kind: %Inh (%)
Reply with just the number (in %).

Below, 6 compounds whose answers are already recorded.
COc1cc2ncn(-c3cc(OCC4CCCCC4)c(C(N)=O)s3)c2cc1OC [GSK204559]	96.5
COc1cccc(C2=C(Nc3cccc(Cl)c3)C(=O)NC2=O)c1 [SB-341556]	3
COC(=O)c1cccc(NC(=O)NC2CCN(c3ccnc(NCc4ccc(F)cc4)n3)CC2)c1 [GSK1379860]	0
CN1CCN(CCNc2nc3cc(Oc4ccc(NC(=O)Nc5cc(C(F)(F)F)ccc5F)cc4)ccc3[nH]2)CC1.Cl.Cl [GW768504]	0
O=C(Nc1ccc(Oc2ccc3nc(NC(=O)C4CC4)cn3n2)c(F)c1)c1cccn(-c2ccccc2)c1=O	0
COc1cccc(CNC(=O)NC2CCN(c3ccnc(Nc4cc(OC)c(OC)c(OC)c4)n3)C2)c1 (centres unmarked) [GSK1379765]	0

Quick note, %Inh for "Cn1ccc2ncnc(Oc3ccc(NC(=O)Nc4cc(C(C)(C)C)on4)c(Cl)c3)c21" landed at 81

Lab note: CCCC(=O)Nc1n[nH]c2ncccc12 [SB-601436] gave %Inh of 0

Data point: Cc1cccc2c(-c3ccncc3)c(-c3ccc(F)cc3)nn12.Cl [GW461487] ; %Inh = 0

Value of measured %Inh for the entry C[C@@H](Oc1cc(-n2cnc3cc(-c4ccncc4)ccc32)sc1C(N)=O)c1ccccc1Cl [GSK479719] : 0

%Inh in this record for "Cn1cc(-c2cccc3c(N)c(C(N)=O)nnc23)cn1" : 21

Short answer for Cc1ccc2c(-c3ccnc(Nc4ccc(C(F)(F)F)cc4)n3)cnn2n1 [GW819776] : %Inh was 2

The reported value for Cl.Cl.NC[C@H](CC1CCCCC1)NC(=O)c1ccc(-c2ccnc3[nH]ccc23)s1 [GSK1581428] in terms of %Inh is 64

response.value for CCNCC(Cc1ccccc1)NC(=O)c1cc(Br)c(-c2ccnc3[nH]ccc23)s1.Cl.Cl (centres unmarked) [GSK1383280] (field: %Inh) = 19

According to the records, this compound CS(=O)(=O)Nc1ccc(-c2ccnc3[nH]ccc23)cc1 [GSK993273] displays %Inh of 33

Measured %Inh of CN(c1ccc2c(c1)nc(NCc1ccc(F)cc1)n2C)c1ccnc(Nc2ccc(CS(C)(=O)=O)cc2)n1.Cl [GW813244] : 19

The reported value for C[C@@H](Oc1cc(-n2cnc3cc(-c4cnn(C)c4)ccc32)sc1C(N)=O)c1ccccc1Cl [GSK580432] in terms of %Inh is 0
